assay: protease stability score; higher = more stable; yeast display proteolysis, trypsin and chymotrypsin;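 also: relative to predicted unfolded state with 0 unfolded-like and 1 meaning tenfold more protease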
Below is a list of entries, each paired with its recorded protease stability score value.
Outcome Measure: protease stability score

[[record]]
sequence = "SEEEEEVEEFIHIFTESLKTGDEHSLRRLVDPHVRIEWNGRTHHGWQMFTRLVREARVEIVVRDIRVINGRAIINGELRYEQGDKTFTTEIEIIVVKFDGKWHMHHVRYK"
numeric_result = 2.21

[[record]]
sequence = "DESEESIRKVVKLLERAHRTGDEHEMKHLLDPNAKLIINGVELHGMELFEKLFKFERHHWRLHSMHVRHVDTQGDKANSDGEEDREFDGRREEVKTIIVMVKIDGRWHVKHIIFL"
numeric_result = 1.08

[[record]]
sequence = "SEEEEEAHRYQEEWKRVHRTGDEDRFRELMDPNVRIHLNINGKNIHLHGRQLAVDFLRHIHLHWRDHEIHTHDIRHFNGVTHVTGRLDGEVNGRRIDTHVEFHHHVFNGRIKSIIIIVH"
numeric_result = 1.33

[[record]]
sequence = "DEETRMSEHAERLLIRSIRTGDFEEITRLADPHVRVHIGDKDIHGRESLSEVLEKTMRKFGVDNVDYKIEDSHTYDGRIDIRGRLEVNGVKREVRFHSLKIDGRWLLTHVEMD"
numeric_result = -0.04

[[record]]
sequence = "SDLEDEFREFLEEWIKHWLTGDEETLFHLADPHAQIDINGREHHGMDEWMHILLKHLKELGARIEIRIEDIRVQGEKTEVDGNLILHINGRRKELKVELIVRVVNGRLKSIEIRIH"
numeric_result = 1.02

[[record]]
sequence = "DEDTQTLEKIWRDFVRALRTGDEDHLSRLLDPNTRIDINGKESHGRERAEEVLREMFERIDHFHRVEIHDRREVNGRVNLDTRRDVEVNGVRDMYTTHLIILKVDGKWSMKTIELK"
numeric_result = 1.33

[[record]]
sequence = "SEAEERAEKFIELLTKALLTGDWRMISRMFDPHVRIIIGDKESHGMESLRDTLEHLRFDHINTRIEHVQVQGDWVEIHIRVHMRITVDGKEFHVETQMHYVLIKIDGKWVVREIEIR"
numeric_result = 2.44

[[record]]
sequence = "SEEEEDAEEFSRLFAELMKTGDEESLHRLADPDVRLHYGDKDHHGREQYTESWKRILDELGVDNVRIELKSVRVINGVVYVDSLVRVGDKTFRLIVIFRKINGRWRLESVKVE"
numeric_result = 1.29

[[record]]
sequence = "DEEEEEARIAVDMFRRTVETGDEELLRKMIDPHVRMHVGDKDLHGRDFAVEIFHKLGVDHFEIRHQRLIGDKVELDIKVNVNGKEMETHSHLEKVNGRWVIRSLDVR"
numeric_result = 1.25

[[record]]
sequence = "SEEDELLREVFELWVEIVRTGDESRLKKLLDPHVRLIYNGRRYHGWEEVVRFYREWRIKSMSIHSIETQGDKAHANSETDIEYNGKRERSDIRIHMIVINGRIHHIEIREH"
numeric_result = 2.39

[[record]]
sequence = "SEEEETLRDALELVREVLETGDPHLSERLFDPDVRVIYGDKHYHGREYASEMIRFMGVKHFHIKSVRDVDGQVDIDTETHFNGKKYRMHLQTKKIDGKWHLRIIEFR"
numeric_result = 1.39

